# credit: patent US20240279318A1

- targetOrTestSystem: T1, AFP158/HLA-A*02:01 complex (human)
- T1 construct: flowed over the chip as analyte; also called AFP158 peptide/HLA-A*02:01 complex
- assayDetails: SPR (BIAcore T200), crude scFv captured, complex flowed over
Cut-off 700 RU on SPR binding level: below means true, at or above means false.

Sample answers from the record:
1) 27-AS170036 VL1VH1-57K108S (scFv, Crude scFv mutein of AS170036 VL1VH1) scFv: QSALTQPRSVSGSPGQSVTISCAGTSSDVGSENYVSWYQQHPGKAPKLMIYQVNKRASGVPDRFSGSKSGNTASLTISGLQAEDEADYYCASYRSSDHNIVFGGGTKLTVLGGGGSGGGGSGGGGSEVQLVESGGGLVQPGGSLRLSCAASGFTFSSYAMSWVRQAPGKGLEWVSTINSGTGKPYYADSVKGRFTISRDNSKNTLYLQMNSLRAEDTAVYYCAKNFFDGSWFLSPPAMDYWGQGTLVTVSSHHHHHH = true
2) 75-AS170036 VL1VH1-57K98Q108S (scFv, Crude scFv mutein of AS170036 VL1VH1) scFv: QSALTQPRSVSGSPGQSVTISCAGTSSDVGSENYVSWYQQHPGKAPKLMIYQVNKRASGVPDRFSGSKSGNTASLTISGLQAEDEADYYCASYRSSDQNIVFGGGTKLTVLGGGGSGGGGSGGGGSEVQLVESGGGLVQPGGSLRLSCAASGFTFSSYAMSWVRQAPGKGLEWVSTINSGTGKPYYADSVKGRFTISRDNSKNTLYLQMNSLRAEDTAVYYCAKNFFDGSWFLSPPAMDYWGQGTLVTVSSHHHHHH = false
3) AS170036 VL1VH1 (scFv, Crude scFv from E. coli TG1 supernatant, captured on the chip; also called AS170036 VL1VH1 scFv) scFv: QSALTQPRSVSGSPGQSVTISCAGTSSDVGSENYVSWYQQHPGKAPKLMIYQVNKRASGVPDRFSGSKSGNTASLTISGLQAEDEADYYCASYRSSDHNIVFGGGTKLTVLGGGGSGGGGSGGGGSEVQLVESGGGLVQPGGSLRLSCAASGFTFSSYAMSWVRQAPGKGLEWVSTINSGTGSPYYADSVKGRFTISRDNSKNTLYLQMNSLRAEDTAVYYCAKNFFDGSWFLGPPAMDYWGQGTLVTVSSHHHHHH = true

Ask: Determine if 16-AS170036 VL1VH1-56Y108A (scFv, Crude scFv mutein of AS170036 VL1VH1) scFv: QSALTQPRSVSGSPGQSVTISCAGTSSDVGSENYVSWYQQHPGKAPKLMIYQVNKRASGVPDRFSGSKSGNTASLTISGLQAEDEADYYCASYRSSDHNIVFGGGTKLTVLGGGGSGGGGSGGGGSEVQLVESGGGLVQPGGSLRLSCAASGFTFSSYAMSWVRQAPGKGLEWVSTINSGTYSPYYADSVKGRFTISRDNSKNTLYLQMNSLRAEDTAVYYCAKNFFDGSWFLAPPAMDYWGQGTLVTVSSHHHHHH shows SPR binding level strictly lower than 700 RU.
Reply: true

Ask: Determine if 82-AS170036 VL1VH1-57M98Q108A (scFv, Crude scFv mutein of AS170036 VL1VH1) scFv: QSALTQPRSVSGSPGQSVTISCAGTSSDVGSENYVSWYQQHPGKAPKLMIYQVNKRASGVPDRFSGSKSGNTASLTISGLQAEDEADYYCASYRSSDQNIVFGGGTKLTVLGGGGSGGGGSGGGGSEVQLVESGGGLVQPGGSLRLSCAASGFTFSSYAMSWVRQAPGKGLEWVSTINSGTGMPYYADSVKGRFTISRDNSKNTLYLQMNSLRAEDTAVYYCAKNFFDGSWFLAPPAMDYWGQGTLVTVSSHHHHHH shows SPR binding level strictly lower than 700 RU.
Reply: true

Ask: Determine if 19-AS170036 VL1VH1-56N108A (scFv, Crude scFv mutein of AS170036 VL1VH1) scFv: QSALTQPRSVSGSPGQSVTISCAGTSSDVGSENYVSWYQQHPGKAPKLMIYQVNKRASGVPDRFSGSKSGNTASLTISGLQAEDEADYYCASYRSSDHNIVFGGGTKLTVLGGGGSGGGGSGGGGSEVQLVESGGGLVQPGGSLRLSCAASGFTFSSYAMSWVRQAPGKGLEWVSTINSGTNSPYYADSVKGRFTISRDNSKNTLYLQMNSLRAEDTAVYYCAKNFFDGSWFLAPPAMDYWGQGTLVTVSSHHHHHH shows SPR binding level strictly lower than 700 RU.
Reply: true

Ask: Determine if 03-AS170036 VL1VH1-56Y98Q (scFv, Crude scFv mutein of AS170036 VL1VH1) scFv: QSALTQPRSVSGSPGQSVTISCAGTSSDVGSENYVSWYQQHPGKAPKLMIYQVNKRASGVPDRFSGSKSGNTASLTISGLQAEDEADYYCASYRSSDQNIVFGGGTKLTVLGGGGSGGGGSGGGGSEVQLVESGGGLVQPGGSLRLSCAASGFTFSSYAMSWVRQAPGKGLEWVSTINSGTYSPYYADSVKGRFTISRDNSKNTLYLQMNSLRAEDTAVYYCAKNFFDGSWFLGPPAMDYWGQGTLVTVSSHHHHHH shows SPR binding level strictly lower than 700 RU.
Reply: false
